test system: A498; assay: NCI tumour cell line growth inhibition, 48 h
Active and inactive are the calls of the source. Rule as the data show it: active = GI50 up to about 1.1 µM and inactive = higher. Where a SMILES comes first, the peptide text is derived from it.
Examples of compounds with documented GI50 follow.

compound | experimental.target | GI50
O=C(c1ccccc1)N(CCCCNC(=O)C(F)(F)F)CCCNC(=O)C(F)(F)F | A498 | > 100 µM (inactive)
COC(=O)C1(C(=O)OC)N=C(C)OC1c1ccoc1 (configuration not stated) | A498 | > 100 µM (inactive)
O=C1C=CC(=O)c2c(O)c(N3CCN(c4ccccn4)CC3)cc(O)c21 | A498 | 34.4 µM (inactive)
N#CC1(Cc2ccc(N)cc2)c2ccccc2C=CN1C(=O)c1ccccc1 (configuration not stated) | A498 | 40 µM (inactive)
COc1ccc(C23c4ccc(OC)cc4CC2(c2ccc([N+](=O)[O-])cc2)Cc2cc(OC)ccc23)cc1 (configuration not stated) | A498 | > 29.7 µM (inactive)
CC1NC(=O)CNC(=O)CNC(=O)C(Cc2ccc(O)cc2)NC(=O)C(C(C)C)NC(=O)C(C)NC1=O (configuration not stated) (cyclo(GGAAVY); configuration not given here) | A498 | > 100 µM (inactive)
CCN(CC)CC(=O)N1CCc2c([nH]c3ccccc23)C1c1cccnc1 (configuration not stated) | A498 | > 100 µM (inactive)

---

Listing of entries alongside the reported GI50.
tested on: TK-10; assay: NCI tumour cell line growth inhibition, 48 h
The source made the active and inactive calls. Cut-off read from the data, not from the text of the source: active = GI50 up to about 1.1 µM and inactive = higher.

compound | GI50
O=C(/C=C/c1cccc([N+](=O)[O-])c1)N1CCN(CCOC(c2ccccc2)c2ccccc2)CC1 | 22.7 µM (inactive)
N#CNCC(COCc1ccccc1)c1ccccc1 (stereo unspecified) | > 100 µM (inactive)
CCN(CC)CSc1nc2ccccc2o1 | > 100 µM (inactive)
CCOC(=O)C(=O)Nc1ccc(C)cc1C | > 100 µM (inactive)
COc1cccc(/C=C2\CCC(C)(CN(C)C)C2=O)c1 (stereo unspecified) | > 100 µM (inactive)
COc1cc(/C=C2\Sc3scc(-c4cccc([N+](=O)[O-])c4)[n+]3C2=O)cc(OC)c1OC | 10.7 µM (inactive)

---

test system: RPMI-8226; experiment: NCI tumour cell line growth inhibition, 48 h
Active and inactive are the calls of the source. Cut-off read from the data, not from the text of the source: active = GI50 up to about 1.1 µM and inactive = higher.
Classes used: y for active, n for inactive

compound | experimental.target | label.value
CN/C=C(\C(=O)c1ccc(OC)c(OC)c1)c1ccc(OC)cc1 | RPMI-8226 | n
NC(=O)NC(=O)c1cccc(NC(=O)CCl)c1 | RPMI-8226 | n
O=c1c(-c2nc3ccccc3c3ccccc3c2=O)nc2ccccc2c2ccccc12 | RPMI-8226 | n
CC(=O)NNC(=S)N/C=C1/C(=O)Oc2ccccc2C1=O | RPMI-8226 | n
Cn1c2cccc3nnc4cccc(c4c32)n1C | RPMI-8226 | n
C=CCOC(=O)CCCCCCCCCCCCCCCOC(=O)C1=C(CCC[C@@H](C)O[Si](C)(C)C(C)(C)C)NC(=O)N2[C@H](CC3(CC/C=C\[C@H](CC)O[Si](C(C)C)(C(C)C)C(C)C)OCCO3)CC[C@H]12 | RPMI-8226 | n
COc1ccc2c3c1OC1C34CCN(C)C(C2)C4=CC(I)C1(OC)OC (stereo not given) | RPMI-8226 | n
CCOC(=O)/C=C(\C(=O)OCC)n1ccc(=O)[nH]c1=O | RPMI-8226 | n
CCC/C(=N\NC(=S)N1CC2CCC(CC2)C1)c1ccccn1 | RPMI-8226 | y
Fc1cccc2nc(-c3ccccc3)cc(OCc3ccccc3)c12 | RPMI-8226 | n

Numbers sourced from ChEMBL document CHEMBL1201862.
